Biological target: HER-2 (Homo sapiens)
Construct: His6 with thrombin site (N)
Sequence (P04626 679-1255): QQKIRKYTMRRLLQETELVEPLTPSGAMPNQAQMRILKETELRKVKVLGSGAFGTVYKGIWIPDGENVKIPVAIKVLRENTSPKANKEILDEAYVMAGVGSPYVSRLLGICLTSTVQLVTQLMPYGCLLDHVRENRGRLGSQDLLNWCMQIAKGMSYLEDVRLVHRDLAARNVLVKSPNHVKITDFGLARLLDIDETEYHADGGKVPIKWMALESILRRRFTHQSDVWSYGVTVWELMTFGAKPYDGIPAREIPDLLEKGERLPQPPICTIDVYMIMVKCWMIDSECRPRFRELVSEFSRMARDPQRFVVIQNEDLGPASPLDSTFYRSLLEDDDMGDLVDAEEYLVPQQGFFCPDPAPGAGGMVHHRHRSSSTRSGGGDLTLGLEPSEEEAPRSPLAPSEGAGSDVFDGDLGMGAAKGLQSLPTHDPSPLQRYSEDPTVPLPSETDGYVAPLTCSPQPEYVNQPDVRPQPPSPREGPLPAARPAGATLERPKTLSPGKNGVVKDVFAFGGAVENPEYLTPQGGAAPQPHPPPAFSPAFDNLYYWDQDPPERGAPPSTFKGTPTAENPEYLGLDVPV
Experiment: HER-2 Kinase Assay
Conditions: value in parentheses
REPORTED_ENDPOINT: pIC50
Answers are plain numbers, as −log10 of the molar value.

>>> print(df.to_string())
                                   compound  reported_endpoint  observed_value
0  O=C(Nc1ccc(CN2CCOCC2)cc1)c1sc2ncnc3c2c1NC(=O)N3c1cccc(Br)c1              pIC50            6.53

Required: pIC50, one value per compound below.
1. O=C(Nc1ccc(CN2CCOCC2)cc1)c1sc2ncnc3c2c1NC(=O)N3c1ccccc1Cl
2. CC1COCC(C)N1Cc1ccc(NC(=O)c2sc3ncnc4c3c2NC(=O)N4c2ccc(Oc3ccccc3)cc2)cc1 (centres unmarked)

[5.60, 6.46]

Required: pIC50, one value per compound below.
1. COc1cc(NC(=O)c2sc3ncnc4c3c2NC(=O)N4c2ccc(OCc3ccco3)c(Cl)c2)ccc1CN1CCCCC1
2. O=C(Nc1ccc(CN2CCOCC2)cc1)c1sc2ncnc3c2c1NC(=O)N3c1ccc(F)c(Br)c1
3. Cc1ccc(N2C(=O)Nc3c(C(=O)Nc4ccc(CN5CCOCC5)cc4)sc4ncnc2c34)cc1Br

7.08
6.53
6.83

---

Molecular target: c-Src kinase (human) (Homo sapiens, UniProt P12931)
Construct: purchased Upstate Biotechnology, Lake Placid, N.Y
Sequence (P12931 whole entry): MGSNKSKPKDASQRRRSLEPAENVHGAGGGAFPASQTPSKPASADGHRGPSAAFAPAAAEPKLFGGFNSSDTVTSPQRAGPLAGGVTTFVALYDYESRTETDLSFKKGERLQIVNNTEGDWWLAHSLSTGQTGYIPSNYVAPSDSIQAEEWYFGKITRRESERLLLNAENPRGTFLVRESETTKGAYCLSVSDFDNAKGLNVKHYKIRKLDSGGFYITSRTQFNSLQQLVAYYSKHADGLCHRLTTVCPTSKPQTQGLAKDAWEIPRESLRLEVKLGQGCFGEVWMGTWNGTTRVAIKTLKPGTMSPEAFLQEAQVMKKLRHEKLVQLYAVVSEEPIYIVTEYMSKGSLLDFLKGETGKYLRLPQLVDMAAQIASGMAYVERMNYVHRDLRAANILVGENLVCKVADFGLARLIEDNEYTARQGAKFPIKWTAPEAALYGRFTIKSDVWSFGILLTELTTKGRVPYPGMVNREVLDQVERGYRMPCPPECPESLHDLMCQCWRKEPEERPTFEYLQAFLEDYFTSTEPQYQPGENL
Test: c-Src Kinase Assay
Format: biochemical
Conditions: test concentration of 2 μM; multiple values are separate assay results; 2 µM
REPORTED_ENDPOINT: c-Src % Inhibition
Enter the number, and then the unit.

Worked cases, c-Src % Inhibition given:
>>> df
                                 mol_smiles  observed_value
0  O=C(Nc1ccc(CN2CCOCC2)cc1)c1sc2ncnc3c2c1NC(=O)N3c1ccc(Oc2ccccc2)c(F)c1             54%
1  CCOC(=O)c1sc2ncnc3c2c1NC(=O)N3c1cc(Br)ccc1C             18%
2  CN1CCC(NC(=O)c2sc3ncnc4c3c2NC(=O)N4c2ccc3c(ccn3Cc3cccc(F)c3)c2)CC1             45%
3  CN1CCN(Cc2ccc(NC(=O)c3sc4ncnc5c4c3NC(=O)N5c3ccc(OCc4ccccn4)c(Cl)c3)cc2)CC1              4%

So what's the measured c-Src % Inhibition for this one? "O=C(Nc1ccc(CN2CCOCC2)cc1)c1sc2ncnc3c2c1NC(=O)N3c1c(Cl)cccc1Cl"
60%

---

Biological target: c-Src kinase (human) (Homo sapiens, UniProt P12931)
Construct: purchased Upstate Biotechnology, Lake Placid, N.Y
Test: c-Src Kinase Assay
Type: biochemical
Conditions: test concentration of 2 μM; multiple values are separate assay results
REPORTED_ENDPOINT: inhibition at 2 µM (%)
Answers are plain numbers, in %.

In [3]: df
Out[3]:
                                 mol_smiles   reported_endpoint  observed_value
0  CN1CCN(Cc2ccc(NC(=O)c3sc4ncnc5c4c3NC(=O)N5c3ccc(Br)cc3F)cc2)CC1  inhibition at 2 µM              43
1  O=C(NCCN1CCOCC1)c1sc2ncnc3c2c1NC(=O)N3c1ccc(Oc2ccccc2)cc1  inhibition at 2 µM              12
2  COc1ccc(N2C(=O)Nc3c(C(=O)Nc4ccc(OCCN5CCOCC5)c(OC)c4)sc4ncnc2c34)c(F)c1  inhibition at 2 µM             -17
3  O=C(Nc1ccc(CN2CCCCC2)cc1)c1sc2ncnc3c2c1NC(=O)N3c1ccc(-c2ccc(Cl)cc2)cc1  inhibition at 2 µM              28
4  COc1cc(N2C(=O)Nc3c(C(=O)Nc4ccc(CN5CCCC5)cc4)sc4ncnc2c34)c(Cl)cc1Cl  inhibition at 2 µM              53

Required: inhibition at 2 µM, one value per compound below.
1. O=C(Nc1ccc(CN2CCCCC2)cc1)c1sc2ncnc3c2c1NC(=O)N3c1ccc(N2CCOCC2)cc1
2. Cc1ccc(N2C(=O)Nc3c(C(=O)NC4CCN(C)CC4)sc4ncnc2c34)cc1Br
3. O=C(Nc1ccc(CN2CCOCC2)cc1)c1sc2ncnc3c2c1NC(=O)N3c1ccc(F)cc1Cl
4. O=C(Nc1ccc(CN2CCOCC2)cc1)c1sc2ncnc3c2c1NC(=O)N3c1ccc(Br)cc1F

1: 30; 2: -7; 3: 52; 4: 11
